# measurementDescription: NCI Yeast Anticancer Drug Screen. Data for the mlh1 rad18 strain (AID 175)
# appliedConditions: S. cerevisiae mlh1 rad18 strain growth inhibition; at 50.0 µM
This is part of a sample that, as a whole, favours compounds with a hit. Of some 79,000 tested, about 15% had one in any assay. The source made the active and inactive calls. Cut-off read from the data, not from the text of the source: active = growth inhibition above about 70%; inactive = the rest.
Give one outcome, nothing more. List: T = active, F = inactive

Hello, I am checking results. What call was entered for c1ccc2c(c1)ccc1c2c[n+](CCCCCCCC[n+]2cc3c4ccccc4ccc3c3ccccc32)c2ccccc12 ?
T

Then what about the molecule O=C(N/N=C/c1cc(Br)cc(Br)c1O)c1ccccc1 ?
F

More entries:
Call for entry CS/C(c1ccccc1)=[N+](\[O-])Cc1ccccc1 :
F

Could you do the same for Cc1nc(C)c(N2CCN(C(=O)NC(CCC(=O)O)C(=O)O)CC2)c(=O)[nH]1 (centres undefined) , please?
F

Would you kindly repeat that for O=C(CCCN1CCC(O)(c2ccc(Cl)cc2)CC1)c1ccc(N2CCC(O)CC2)cc1 ?
F

Try this molecule next: CCCCc1ccc(O)c(CN(CC)CC)c1
F

Would you kindly repeat that for COc1cccc(N)c1 ?
F

---

# measurementDescription: NCI Yeast Anticancer Drug Screen. Data for the bub3 strain (AID 167)
# appliedConditions: S. cerevisiae bub3 mutant strain, at 50.0 µM, active compounds read high
About 79,000 compounds went through this panel and 15% of them were active in at least one assay; those are over-represented in the sample as a whole.
Measured growth inhibition, listed per entry.
Report the value in % with no unit label.

What does the data say about its growth inhibition? Entry: NC1=NN(c2ccccc2)C(=O)C1C(=O)CCC(=O)Nc1cccc(Cl)c1 (configuration not stated)
5.35

Also, OCC1OC(c2scc3c(=S)nc[nH]c23)C(O)C1O (configuration not stated) please.
12.6

Another compound: CC(C)C1OCC=CCO1
13.7

Next record, please: Cc1cc(/C=N/N2CCN(/N=C/c3cc(C)n(-c4ccccc4)c3C)CC2)c(C)n1-c1ccccc1
-2.95

Please answer likewise for C=C(CN(C)C)C(=O)c1ccc(C(=O)C(=C)CN(C)C)cc1
0.65

Here is the next compound: CCOc1cc(/C=N\NC(=S)N/N=C/c2ccc(O)c(OCC)c2)ccc1O
-6.65

Subsequent entry: Cc1[nH]c(=O)c2ccccc2c1O
-17.2

Another compound: CNC(=O)OCc1nc(N=[N+]=[N-])n(C)c1COC(=O)NC
2.2

Then this compound: O=c1oc2cc(O)ccc2cc1-c1nc2ccccc2o1
2.75

And what about the compound CCN(CC)CC(C)C(O)(Cc1ccccc1)c1ccc(Cl)cc1 (configuration not stated) ?
10.1

# iterate: O=C(N/N=C(/c1nc2ccc(Cl)cc2[nH]c1=O)C(O)c1ccc(Cl)cc1Cl)c1ccncc1 (configuration not stated)
-3.6

Next: O=C(O)C(c1ccccc1)S(=O)(=O)c1ccccc1 (configuration not stated)
-11.5

What about C/C=C1\OC(n2cnc3c(N)ncnc32)C(O)C1O (configuration not stated) ?
-16.2

Entry to check: CO[C@@]12CC(=O)/C(=C(O)\C=C\c3ccccc3)C(=O)[C@]1(OC)Cc1ccccc1O2
34.2

Then what about the compound CC(=O)O[C@H]1C(=O)[C@]2(C)[C@@H](OC(=O)OCCC(O)CO)C[C@H]3OC[C@@]3(OC(C)=O)[C@H]2[C@H](OC(=O)c2ccccc2)[C@]2(O)C[C@H](OC(=O)[C@H](O)[C@@H](NC(=O)c3ccccc3)c3ccccc3)C(C)=C1C2(C)C (some centres not stated) ?
-19.2

What do you get for CN1c2ccc(C3N(C(=O)C(F)(F)F)C=CN3C(=O)C(F)(F)F)cc2Sc2cc(C3N(C(=O)C(F)(F)F)C=CN3C(=O)C(F)(F)F)ccc21 ?
1.05

Now the same for CCN(CC)S(=O)(=O)c1ccc(S(C)(=O)=O)cc1
8.35

---

# measurementDescription: NCI Yeast Anticancer Drug Screen. Data for the rad50 strain (AID 155);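 note: 0% = growth of vehicle-only cultures of the same strain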
# appliedConditions: S. cerevisiae rad50 strain growth inhibition; at 50.0 µM; active compounds read high
# Protocol: Growth inhibition of yeast strains with defined genetic alterations is measured as a screen for potential anti-cancer activity. Selected strains with alterations in DNA damage repair or cell cycle control were exposed to compounds and growth inhibition was measured relative to vehicle treated controls. The strain used in this assay is rad50
This is part of a sample that, as a whole, favours compounds with a hit. Of some 79,000 tested, about 15% had one in any assay.
Reported growth inhibition values follow for various compounds
Express it in %; write the number only.

The following compounds have reported results that may help.
Field request: growth inhibition | item: COC(=O)C1CCc2c(ccc3cc(OC)ccc23)C1(C)C(=O)OC (stereo not drawn)
-14.5

And for CC(=O)CC(=O)NCc1cccc(C)n1 ?
38.1

Read the next record carefully.
For CCCc1cc(=O)n(CCCc2ccccc2)c(=O)n1CCCc1ccccc1 , what is its reported growth inhibition?
10.3

---

# measurementDescription: NCI Yeast Anticancer Drug Screen. Data for the mlh1 rad18 strain (AID 175)
# appliedConditions: S. cerevisiae mlh1 rad18 strain growth inhibition; at 50.0 µM
This is part of a sample that, as a whole, favours compounds with a hit. Of some 79,000 tested, about 15% had one in any assay. Activity calls are given as the source filed them. Cut-off read from the data, not from the text of the source: active = growth inhibition above about 70%; inactive = the rest.
Answer with one of the outcomes True = active, False = inactive

For orientation, consider the following solved cases.
# fetch the recorded call for O=C(O)C(Br)C(Br)C(=O)Nc1cccc2ccccc12 (centres undefined) here
True

Then this compound: CCOC(=O)NC(=O)c1cn(CCSCCOC(=O)NCCCCCCNC(=O)OCCSCCn2cc(C(=O)NC(=O)OCC)c(=O)[nH]c2=O)c(=O)[nH]c1=O
False

Ok, now CCCCCCCCC(=O)OCC(=O)N(C)C
False

***
Called result for COc1ccc(CC(N)C(=O)NC2C(CO)OC(n3cnc4c(N)ncnc43)C2O)cc1 (centres undefined)
False

Lookup O=c1[nH]c2ccc([N+](=O)[O-])cc2nc1/C=C(\O)c1ccccc1
False

// repeat for CC(=O)c1ccccc1Cc1cccc2c(Cl)cccc12 and report
False

Repeat with CCCCCCCC(CCCCCCC)(C(=O)OCC)C(=O)OCC
False

Subsequent entry: BrC=C1c2ccccc2-c2ccccc21
False

What would you report for COc1ccc(/C(Cl)=C(\C=O)c2ccc(OC)c(OC)c2)cc1OC ?
False

Now the compound Cc1[nH]c(=O)nc(N/N=C/c2ccc(Cl)cc2)c1C(=O)Nc1ccc(Cl)cc1
False

Then this compound: COc1ccc(-c2oc3cc(OC)c(OC)c(OC)c3c(=O)c2O)cc1O
True

---

Reported growth inhibition values for a set of compounds
# measurementDescription: NCI Yeast Anticancer Drug Screen. Data for the mec2-1 strain (AID 157)
# appliedConditions: S. cerevisiae mec2-1 strain, at 50.0 µM, active compounds read high
Compounds without any hit were thinned out: in the full panel of roughly 79,000, 15% have a hit.
Number in %, nothing else.

// known answers, use as guide
What value of growth inhibition has been reported for the following compound? CN1CCN(CCSC(=O)C(O)(c2ccccc2)C2CCCC2)CC1 (stereo unspecified)
16.6

Repeat for the following compound: O=[N+]([O-])c1cc(Cl)ccc1Sc1ccccc1
8.25

What do we get for C=C(C(=O)NC1CCCCC1)c1ccccc1 ?
-22.4

Continue with COC(=O)c1s/c(=N\C(=S)N(C)C)n(-c2ccc(Cl)cc2)c1C(=O)OC
2.25

Now the same for CC(C(=O)O)/C(=C\c1ccccc1)C(=O)O (stereo unspecified)
7.25

***
Reported growth inhibition, compound N=c1ncn(C/C=C/c2ccccc2)c2nc[nH]c12 : ____
-28.4

Would you mind doing Cc1c2c(n3c(nc4ccccc43)c1C#N)SCC2 as well?
-49.3

Also need Cc1cccc[n+]1CC(=O)c1ccc(Cl)cc1 , thanks.
3.25

---

# measurementDescription: NCI Yeast Anticancer Drug Screen. Data for the mec2-1 strain (AID 157)
# appliedConditions: S. cerevisiae mec2-1 strain, at 50.0 µM, active compounds read high
About 79,000 compounds went through this panel and 15% of them were active in at least one assay; those are over-represented in the sample as a whole.
readoutLabel: growth inhibition (%)
Answer in %, number only, no unit symbol.

Fill in the blank: the reported growth inhibition of O=C(C(c1ccccc1)C(F)(F)F)N1CCCC1 (stereo not given) is ____.
-7.8

Input O=c1cnn(C2OC(C(O)CO)C(O)C2O)c(=O)[nH]1 (stereo not given)
-81.5

Continue with Cc1nn(C(=O)Cc2ccccc2)c2c1C(c1ccc(O)cc1O)SC(N)=N2 (stereo not given)
-23.1

And then c1ccc(-c2nnc3nn4c(-c5ccccc5)cnnc4c3c2-c2ccccc2)cc1 , what is it?
-10.3

Then O=c1oc2ccccc2[n+]([O-])c1-c1ccccc1 ?
-10.8

The record that follows has no growth inhibition shown yet.
Would you mind telling me what growth inhibition value was observed for O=c1c2cc(S(=O)(=O)Nc3ccc(Cl)cc3Cl)ccc2ncn1NS(=O)(=O)c1cccc2ccccc12 ?
-5.4

Where do these numbers come from? They come from PubChem BioAssay (NCI).
